I'd be grateful if you could share measured normalized growth for these entries.
Experiment: chemical genetic growth profiling, strain panel (AID 1159580);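 further: tested at 20 µM; growth read once vehicle control cultures reached saturation at 30 °C; 1 = growth at the plate median or of vehicle wells; lower values mean less growth of the strain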
Conditions: S. cerevisiae deletion strains, growth OD, locus YOR070C, strain gyp1, active compounds read low
Among all 5,500 compounds or so, about 2,000 (36%) were called active. Not shown: some 18% with an inconclusive outcome. Some of the results follow.
Answer with the value's number alone.

Report normalized growth for Oc1cc(O)c2c(c1)O[C@H](c1cc(O)c(O)c(O)c1)[C@H](O)C2 please. 1

Moving on to COc1ccc2c(c1)OC/C(=C/c1ccc(OC)c(OC)c1)C2=O 0.929

Moving on to CN(C)CCOC(c1ccc(Cl)cc1)c1ccccn1 (configuration not stated) 1.01

Moving on to CC(=O)Oc1cc(OC(C)=O)c2c(c1)O[C@H](c1ccc(OC(C)=O)c(OC(C)=O)c1)[C@@H](OC(C)=O)C2 1

Moving on to O=C(O[C@@H]1Cc2c(O)cc(O)cc2O[C@@H]1c1ccc(O)c(O)c1)c1cc(O)c(O)c(O)c1 0.97

Moving on to CN(C)CCN(Cc1ccccc1)c1ccccn1 0.999

Moving on to COc1cc([C@@H]2c3cc4c(cc3C(OC3O[C@@H]5COC(C)O[C@H]5[C@H](O)[C@H]3O)C3COC(=O)[C@@H]32)OCO4)cc(OC)c1O (some centres not stated) 1.04

Moving on to CC(=O)O[C@H]1C[C@@H](OC(C)=O)C(C)(C)C2CC(=O)[C@]3(C)C(CC[C@@]4(C)[C@H](C(=O)O)OC(=O)C5OC543)[C@]21C (some centres not stated) 1

Moving on to C=CCc1ccc(OC)cc1 1.02

Moving on to C=C[C@@](C)(O)CCC1C(=C)C[C@H](OC(C)=O)C2C(C)(C)CCCC12C (some centres not stated) 1

Moving on to COc1ccc([C@H]2Oc3c(I)c(OC)cc(OC)c3C[C@@H]2O)cc1OC 1.02

Moving on to CN1C2CCC1CC(OC(c1ccccc1)c1ccccc1N)C2 (configuration not stated) 1.01
